- Organism: Rattus norvegicus
- experiment: Open TG-GATES - Regimen: Daily Repeat
- Format: toxicity, organism-based, Sprague-Dawley
- Parameters: regimen Daily Repeat, gender Male, age 6 weeks
- test_parameters: in vivo, po, 0 mg/kg, […], tissue Blood, route gavage, dose level Control, time 7 day
property_measured: Eos (%)
API: value field is a number in %; no unit string.

Would you kindly share the measured Eos for CC(C)OC(=O)C(C)(C)Oc1ccc(C(=O)c2ccc(Cl)cc2)cc1 [FENOFIBRATE] ?
1

Reported Eos for NNC(=O)c1ccncc1 [ISONIAZID] : what is it?
1

Consider the compound CCOC(=O)CCC(=O)O[C@H]1[C@H](O[C@@H]2[C@@H](C)[C@H](O[C@H]3C[C@@](C)(OC)[C@@H](O)[C@H](C)O3)[C@@H](C)C(=O)O[C@H](CC)[C@@](C)(O)[C@H](O)[C@@H](C)C(=O)[C@H](C)C[C@@]2(C)O)O[C@H](C)C[C@@H]1N(C)C [ERYTHROMYCIN ETHYLSUCCINATE] and give its measured Eos.
1

# Eos lookup, item COC1=CC(=O)C[C@@H](C)[C@]12Oc1c(Cl)c(OC)cc(OC)c1C2=O [GRISEOFULVIN]
0.8

// returns reported Eos for input NC(N)=Nc1nc(CSCCC(N)=NS(N)(=O)=O)cs1 [FAMOTIDINE]
0.8

Any idea what Eos was measured for CC1=C(/C=C/C(C)=C/C=C/C(C)=C/CO)C(C)(C)CCC1 [RETINOL] ?
0.8

Requested read-out: Eos. Entry: CN(C)CCN(Cc1cccs1)c1ccccn1
0.6

Entry CN(C)CCCN1c2ccccc2CCc2ccccc21 [IMIPRAMINE] : reported Eos = ?
1

* * *

Please respond with reported APTT for every item in the list.
- Species on record: Rattus norvegicus
- experiment: Open TG-GATES - Regimen: Daily Repeat
- Format: toxicity, organism-based, Sprague-Dawley
- Parameters: regimen Daily Repeat, gender Male, age 6 weeks
- test_parameters: in vivo, po, 0 mg/kg, […], tissue Blood, route gavage, dose level Control, time 28 day
Provide only the numeric value, understood in s.

Entry CN1C(=O)CN=C(c2ccccc2)c2cc(Cl)ccc21 : reported APTT = ?
17

Field request: APTT | item: CCOc1ccc(NC(=O)CC(C)O)cc1 (centres undefined)
18.6

Look at this compound and give its reported APTT. O=C(CCCN1CCC(O)(c2ccc(Cl)cc2)CC1)c1ccc(F)cc1
16.6

Consider the compound CN(C)CCN(Cc1cccs1)c1ccccn1 and give its measured APTT.
23.4

* * *

- Species: Rattus norvegicus
- experiment: Open TG-GATES - Regimen: Single
- Type: toxicity, organism-based, Sprague-Dawley
- Design: regimen Single, gender Male, age 6 weeks
- test_parameters: in vivo, po, 10 mg/kg, 6 h, tissue Plasma, route gavage, dose level Low
property_measured: AST (IU/L)
Quick note: give the figure in IU/L, leave out the unit.

Given the entry CN(C)CCCN1c2ccccc2CCc2ccccc21 , report its measured AST.
79.4

I'd like to know its AST. The compound in question is CN(C)CCCN1c2ccccc2CCc2ccc(Cl)cc21
78.4

Item CC(C)OC(=O)C(C)(C)Oc1ccc(C(=O)c2ccc(Cl)cc2)cc1 [FENOFIBRATE] has what recorded AST?
77.2

Fill in: AST of CC1=C(/C=C/C(C)=C/C=C/C(C)=C/CO)C(C)(C)CCC1 is ___
69.2

What value of AST has been reported for the following compound? CN(C)CCN(Cc1cccs1)c1ccccn1
70.2

* * *

- Organism: Rattus norvegicus
- experiment: Open TG-GATES - Regimen: Daily Repeat
- Assay type: toxicity, organism-based, Sprague-Dawley
- Parameters: regimen Daily Repeat, gender Male, age 6 weeks
- test_parameters: in vivo, po, 0 mg/kg, […], tissue Plasma, route gavage, dose level Control, time 14 day
property_measured: TC (mg/dL)
I only need the number, in mg/dL, no unit after it.

Any idea what TC was measured for CN(C)CCN(Cc1cccs1)c1ccccn1 ?
63.8

Record request: TC value, item CCOc1ccc(NC(=O)CC(C)O)cc1 (stereo not given)
81

Any idea what its TC is? The molecule is CC(C)OC(=O)C(C)(C)Oc1ccc(C(=O)c2ccc(Cl)cc2)cc1 [FENOFIBRATE]
64.6

Record request: TC value, item COc1ccc2[nH]c([S+]([O-])Cc3ncc(C)c(OC)c3C)nc2c1 (stereo not given)
69

# input molecule: COC1=CC(=O)C[C@@H](C)[C@]12Oc1c(Cl)c(OC)cc(OC)c1C2=O ; wanted: its TC
73.6

* * *

Can you tell me KIDNEY_R for the items I'm about to list?
- Species on record: Rattus norvegicus
- experiment: Open TG-GATES - Regimen: Single
- Assay type: toxicity, organism-based, Sprague-Dawley
- Parameters: regimen Single, gender Male, age 6 weeks
- test_parameters: in vivo, po, 1000 mg/kg, 9 h, tissue Kidney, route gavage, dose level High
Write the answer as a number in g, unit excluded.

Need KIDNEY_R of COC1=CC(=O)C[C@@H](C)[C@]12Oc1c(Cl)c(OC)cc(OC)c1C2=O [GRISEOFULVIN] , thanks.
1

May I ask what KIDNEY_R has been recorded for CC(C)OC(=O)C(C)(C)Oc1ccc(C(=O)c2ccc(Cl)cc2)cc1 [FENOFIBRATE] ?
0.8

Request the reported KIDNEY_R associated with COc1ccc2[nH]c([S+]([O-])Cc3ncc(C)c(OC)c3C)nc2c1 (stereo not given) [OMEPRAZOLE]
1

What does the record list as KIDNEY_R for NC(N)=Nc1nc(CSCCC(N)=NS(N)(=O)=O)cs1 [FAMOTIDINE] ?
1

KIDNEY_R lookup needed for CCOC(=O)CCC(=O)O[C@H]1[C@H](O[C@@H]2[C@@H](C)[C@H](O[C@H]3C[C@@](C)(OC)[C@@H](O)[C@H](C)O3)[C@@H](C)C(=O)O[C@H](CC)[C@@](C)(O)[C@H](O)[C@@H](C)C(=O)[C@H](C)C[C@@]2(C)O)O[C@H](C)C[C@@H]1N(C)C [ERYTHROMYCIN ETHYLSUCCINATE] , thanks.
1

* * *

- Organism: Rattus norvegicus
- experiment: Open TG-GATES - Regimen: Single
- Type: toxicity, organism-based, Sprague-Dawley
- Design: regimen Single, gender Male, age 6 weeks
- test_parameters: in vivo, po, 30 mg/kg, 6 h, tissue Plasma, route gavage, dose level Middle
property_measured: CRE (mg/dL)
Expressed in mg/dL, but write only the number.

What measured CRE goes with CN(C)CCCN1c2ccccc2CCc2ccc(Cl)cc21 ?
0.2

Item CC1=C(/C=C/C(C)=C/C=C/C(C)=C/CO)C(C)(C)CCC1 has what recorded CRE?
0.1

Which value of CRE has been reported for CN(C)CCCN1c2ccccc2CCc2ccccc21 in the records?
0.1

Requested field: CRE. Item: CN(C)CCN(Cc1cccs1)c1ccccn1
0.1

* * *

- Species on record: Rattus norvegicus
- experiment: Open TG-GATES - Regimen: Daily Repeat
- Assay type: toxicity, organism-based, Sprague-Dawley
- Design: regimen Daily Repeat, gender Male, age 6 weeks
- test_parameters: in vivo, po, 0 mg/kg, 72 h, tissue Plasma, route gavage, dose level Control, time 3 day
Assign LDH to each entry below.
Field: numeric (IU/L). Do not append units.

Which LDH is reported for this compound? CC(C)OC(=O)C(C)(C)Oc1ccc(C(=O)c2ccc(Cl)cc2)cc1 [FENOFIBRATE]
75.2

Quick one: LDH for CC1=C(/C=C/C(C)=C/C=C/C(C)=C/CO)C(C)(C)CCC1 ?
251.8

If you can, please state the reported LDH value of CCOc1ccc(NC(=O)CC(C)O)cc1 (centres undefined) .
67.2

Need LDH of NNC(=O)c1ccncc1 , thanks.
102

* * *

Field: MCHC. Provide a value for each of the compounds that follow.
- Species on record: Rattus norvegicus
- experiment: Open TG-GATES - Regimen: Single
- Assay type: toxicity, organism-based, Sprague-Dawley
- Parameters: regimen Single, gender Male, age 6 weeks
- test_parameters: in vivo, po, 1000 mg/kg, 6 h, tissue Blood, route gavage, dose level High
Write the number in % without appending the unit.

# lookup: MCHC of CC(C)OC(=O)C(C)(C)Oc1ccc(C(=O)c2ccc(Cl)cc2)cc1 [FENOFIBRATE]
32.5

# MCHC lookup, item COc1ccc2[nH]c([S+]([O-])Cc3ncc(C)c(OC)c3C)nc2c1 (stereo not given) [OMEPRAZOLE]
34.9

Quick one: MCHC for COC1=CC(=O)C[C@@H](C)[C@]12Oc1c(Cl)c(OC)cc(OC)c1C2=O [GRISEOFULVIN] ?
34

What MCHC value was documented for this compound, NC(N)=Nc1nc(CSCCC(N)=NS(N)(=O)=O)cs1 [FAMOTIDINE] ?
35.4

Tell me the measured MCHC of CCOC(=O)CCC(=O)O[C@H]1[C@H](O[C@@H]2[C@@H](C)[C@H](O[C@H]3C[C@@](C)(OC)[C@@H](O)[C@H](C)O3)[C@@H](C)C(=O)O[C@H](CC)[C@@](C)(O)[C@H](O)[C@@H](C)C(=O)[C@H](C)C[C@@]2(C)O)O[C@H](C)C[C@@H]1N(C)C [ERYTHROMYCIN ETHYLSUCCINATE] , please.
32.8

Taken from ChEMBL document CHEMBL3885861.
